Provenance of the data: ChEMBL document CHEMBL1126739

Target: Angiotensin-converting enzyme (Homo sapiens, UniProt P12821)
Sequence (P12821 whole entry): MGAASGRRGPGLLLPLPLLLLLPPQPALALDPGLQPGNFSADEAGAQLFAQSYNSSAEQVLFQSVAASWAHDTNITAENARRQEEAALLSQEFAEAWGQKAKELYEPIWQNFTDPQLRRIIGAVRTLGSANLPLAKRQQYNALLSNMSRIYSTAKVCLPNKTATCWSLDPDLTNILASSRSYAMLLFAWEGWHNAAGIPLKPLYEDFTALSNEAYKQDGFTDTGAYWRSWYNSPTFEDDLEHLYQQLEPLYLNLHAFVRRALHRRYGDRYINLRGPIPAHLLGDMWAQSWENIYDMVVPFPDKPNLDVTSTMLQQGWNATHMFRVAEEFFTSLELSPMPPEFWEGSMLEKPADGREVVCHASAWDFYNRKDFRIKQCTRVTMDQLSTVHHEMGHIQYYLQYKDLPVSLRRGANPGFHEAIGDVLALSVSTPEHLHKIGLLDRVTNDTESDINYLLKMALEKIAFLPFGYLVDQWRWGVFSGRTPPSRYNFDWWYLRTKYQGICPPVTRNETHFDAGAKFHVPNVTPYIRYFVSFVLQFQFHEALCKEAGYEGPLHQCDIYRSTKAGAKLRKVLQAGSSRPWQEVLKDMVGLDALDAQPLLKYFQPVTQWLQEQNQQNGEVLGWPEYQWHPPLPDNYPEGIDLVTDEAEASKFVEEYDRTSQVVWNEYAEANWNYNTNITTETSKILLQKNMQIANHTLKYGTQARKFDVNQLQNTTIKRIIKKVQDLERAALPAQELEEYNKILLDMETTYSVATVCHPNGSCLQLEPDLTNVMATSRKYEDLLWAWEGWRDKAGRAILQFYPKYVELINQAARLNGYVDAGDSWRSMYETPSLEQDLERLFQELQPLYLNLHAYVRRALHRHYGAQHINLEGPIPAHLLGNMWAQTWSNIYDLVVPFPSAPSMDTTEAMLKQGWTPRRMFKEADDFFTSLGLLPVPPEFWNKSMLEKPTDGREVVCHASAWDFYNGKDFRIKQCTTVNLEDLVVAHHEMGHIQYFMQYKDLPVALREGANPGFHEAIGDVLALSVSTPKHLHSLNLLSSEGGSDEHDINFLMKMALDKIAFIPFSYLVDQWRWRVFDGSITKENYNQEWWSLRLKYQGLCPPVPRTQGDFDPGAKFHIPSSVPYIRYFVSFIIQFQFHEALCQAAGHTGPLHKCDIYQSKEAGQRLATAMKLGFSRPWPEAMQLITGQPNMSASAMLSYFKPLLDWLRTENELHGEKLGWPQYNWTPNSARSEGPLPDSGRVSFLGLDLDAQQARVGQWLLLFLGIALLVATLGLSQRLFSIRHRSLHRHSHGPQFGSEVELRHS
# condition met = IC50 below 50 µM (exclusive); condition not met = IC50 at/above 50 µM

compound	answer.label
C[C@@H](NCC(=O)O)C(=O)N1CCC[C@H]1C(=O)O	condition met
CC(CCC(=O)N1CCCC1C(=O)O)C(=O)O (stereo not given)	condition not met
CC(N[C@H](C)C(=O)N1CCC[C@H]1C(=O)O)C(=O)O (stereo not given in full)	condition met
C[C@@H](CCC(=O)O)C(=O)N1CCCC1C(=O)O (stereo not given in full)	condition met

----------
Target: Cholecystokinin receptor type A (Homo sapiens, UniProt P32238)
Sequence (P32238 whole entry): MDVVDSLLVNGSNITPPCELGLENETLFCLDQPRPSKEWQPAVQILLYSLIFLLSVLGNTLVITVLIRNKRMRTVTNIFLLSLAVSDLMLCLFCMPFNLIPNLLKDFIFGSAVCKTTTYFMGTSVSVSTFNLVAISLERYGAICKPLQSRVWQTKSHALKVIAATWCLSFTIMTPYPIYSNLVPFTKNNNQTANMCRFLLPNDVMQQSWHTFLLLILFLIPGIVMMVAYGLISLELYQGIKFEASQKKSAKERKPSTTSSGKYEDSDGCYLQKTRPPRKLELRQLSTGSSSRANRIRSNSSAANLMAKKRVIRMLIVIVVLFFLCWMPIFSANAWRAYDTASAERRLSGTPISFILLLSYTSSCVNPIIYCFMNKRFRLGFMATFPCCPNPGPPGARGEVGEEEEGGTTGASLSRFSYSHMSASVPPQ
Assay: Antagonistic activity against cholecystokinin type A receptor
parameter: IC50 (nM)

line.notation	system.tested	parameter	units	observed
CC(C)C[C@@H]1N[C@H]2N(C1=O)c1ccccc1[C@@]2(O)C[C@@H]1NC(=O)c2ccccc2-n2c1nc1ccccc1c2=O	Cholecystokinin receptor type A (Homo sapiens, UniProt P32238)	IC50	nM	1400
